Measured values drawn from the nanobody polyreactivity screen of Harvey et al. (2022) for this set.

# test summary: yeast display, Sf9 membrane polyspecificity reagent, FACS + sequencing; frameworks hold sequencing errors
quantity measured: polyreactivity (PSR sort gate)

INSERT INTO assay_data (query_sequence, observed) VALUES
  ('QVQLVESGGGLVQAGGSLRLSCAASGIIFKSYAMGWYRQAPGKERELVAAITKRGGSTYYADSVKGRFTISRDNAKNTVYLQMNSLKPEDTAVYYCAADDGVGNTDDYWGQGTQVTVSS', 'high polyreactivity'),
  ('QVQLVESGGGLVQAGGSLRLICAASGLIFPRYDMGWYRQAPGKERELVAAITSGGGTYYADSVKGRFTISRDNAKNTVYLQMNSLKPEDTAVYYCARDHYRHSRYFYRYDYWGQGTQVTVSS', 'low polyreactivity'),
  ('QVQLVESGGGLVQAGGSLRLSCPASGYTFYKNAMGWYRQPPGKERELVAAISYSGGRTYYADSVKGRFTISRDNAKNTVYLQMNSLKPEDTAVYYCAKATRVITDDGSYGYWGQGSQVTVSS', 'high polyreactivity'),
  ('QVQLVESGGGLVQAGGILRLSCAASGSTFPFYAMGWYRQAPGKVRELVASINSDGSTNYADSVKGRFTISRDNAKNTVYLQMNSLKPEDTAVYYCAAGWQTRFYSRYYYWGQGTQVTVSS', 'high polyreactivity'),
  ('QVQLVESGGGLVQAGGSLRLSCAASGRIFFRYAMGWYRQAPGKERELVAAISYSGGSTYYADSVKGRFTISRDNAKNTVYLQMNSLKPDDTAVYYCATGPVYEYDYWGQGTQVTVSS', 'low polyreactivity'),
  ('QVQLVESGGGLVQAGGSLRLSCAASGGTFWAYTMGWYRQAPGKERELVATISFGTGNTYYADSVKGRFTISRDNAKNTVYLQMNSLKPEDTAVYYCAAQWPELTRSYVTVEVEYWGQGTQVTVSS', 'low polyreactivity');

Entry QVQLVESGGGLVQAGASLRLSCAASGIILGSYAMGWYRQAPAKERELVAGITSGGGKYYADSVKGRFTISRDNAKNTVYLQMNSMKPEYTAVYYCAKLYFHYYRYGYWGQGTQVTVSS ; polyreactivity (PSR sort gate) = low polyreactivity

Entry QVQLVESGGGLVQAGGSLRLSCAASGITFWVYAMGWYRQAPGKERELVAAISRRGGSTSYADSVKGRFTISRDNAKNTVYLQMNSLKPEDTAVYYCAATTYTHPYGYWGQGTQVTVSS ; polyreactivity (PSR sort gate) = high polyreactivity

Entry QVQLVESGGGLVQAGGSLRLSCAASGRTFVPYAMGWYRQAPGKEREFVAAISSRVASTYYADSVKGRFTISRDNAKNTVYLQMNSLKPEDTAVYYCARTNPAYSIYDYWGQGTQVTVSS ; polyreactivity (PSR sort gate) = low polyreactivity

Entry QVQLVESGGGLVQAGGSLRLSCAASGRIFWANAMGWYRQAPGKERELVAAISRRGGSTYYADSVKGRFTISRDNAKNTVSLQMNSLKPEDTAVYYCNAVSPYTSDDYDYWGQGTQVTVSS ; polyreactivity (PSR sort gate) = high polyreactivity

Entry QVQLVESGGGLVQAGGSLRLSCAASGRTLHAYTMGWYRQAPGSERELVAAITRGGGNTYYADSVKGRFTISRDNAKNTVYLQLNSLKPEDTAVYYCNAAVSGYLSYEYDYWGQGTQVTVSS ; polyreactivity (PSR sort gate) = low polyreactivity
